// provenance: patent US9976134B2

The following molecules are shown together with reported PI (relative stability), 25% TIDE 2X with DTPA values.
# assay explanation: Stability assay in 25% TIDE 2X detergent with DTPA (residual Abz-AGLA-Nba protease activity)
# Type: physicochemical
# assay context: 60 min at 32°C; variant residual AGLA activity divided by wild-type residual activity
// response body must contain only the number

Examples with their reported PI (relative stability), 25% TIDE 2X with DTPA follow.
>  <molecule>
I156M: single-substitution thermolysin variant (SEQ ID NO:3 numbering) (protein, listed as Geobacillus caldoproteolyticus) ITGTSTVGVGRGVLGDQKNINTTYSTYYYLQDNTRGNGIFTYDAKYRTTLPGSLWADADNQFFASYDAPAVDAHYYAGVTYDYYKNVHNRLSYDGNNAAIRSSVHYSQGYNNAFWNGSQMVYGDGDGQTFIPLSGGIDVVAHELTHAVTDYTAGLMYQNESGAINEAISDIFGTLVEFYANKNPDWEIGEDVYTPGISGDSLRSMSDPAKYGDPDHYSKRYTGTQDNGGVHINSGIINKAAYLISQGGTHYGVSVVGIGRDKLGKIFYRALTQYLTPTSNFSQLRAAAVQSATDLYGSTSQEVASVKQAFDAVGVK

>  <recorded number>
1.19

$$$$
>  <molecule>
T006C: single-substitution thermolysin variant (SEQ ID NO:3 numbering) (protein, listed as Geobacillus caldoproteolyticus) ITGTSCVGVGRGVLGDQKNINTTYSTYYYLQDNTRGNGIFTYDAKYRTTLPGSLWADADNQFFASYDAPAVDAHYYAGVTYDYYKNVHNRLSYDGNNAAIRSSVHYSQGYNNAFWNGSQMVYGDGDGQTFIPLSGGIDVVAHELTHAVTDYTAGLIYQNESGAINEAISDIFGTLVEFYANKNPDWEIGEDVYTPGISGDSLRSMSDPAKYGDPDHYSKRYTGTQDNGGVHINSGIINKAAYLISQGGTHYGVSVVGIGRDKLGKIFYRALTQYLTPTSNFSQLRAAAVQSATDLYGSTSQEVASVKQAFDAVGVK

>  <recorded number>
1.03

$$$$
>  <molecule>
Y151C: single-substitution thermolysin variant (SEQ ID NO:3 numbering) (protein, listed as Geobacillus caldoproteolyticus) ITGTSTVGVGRGVLGDQKNINTTYSTYYYLQDNTRGNGIFTYDAKYRTTLPGSLWADADNQFFASYDAPAVDAHYYAGVTYDYYKNVHNRLSYDGNNAAIRSSVHYSQGYNNAFWNGSQMVYGDGDGQTFIPLSGGIDVVAHELTHAVTDCTAGLIYQNESGAINEAISDIFGTLVEFYANKNPDWEIGEDVYTPGISGDSLRSMSDPAKYGDPDHYSKRYTGTQDNGGVHINSGIINKAAYLISQGGTHYGVSVVGIGRDKLGKIFYRALTQYLTPTSNFSQLRAAAVQSATDLYGSTSQEVASVKQAFDAVGVK

>  <recorded number>
1.25

$$$$

API: the following record is the query input.
Specify PI (relative stability), 25% TIDE 2X with DTPA for S065C: single-substitution thermolysin variant (SEQ ID NO:3 numbering) (protein, listed as Geobacillus caldoproteolyticus) ITGTSTVGVGRGVLGDQKNINTTYSTYYYLQDNTRGNGIFTYDAKYRTTLPGSLWADADNQFFACYDAPAVDAHYYAGVTYDYYKNVHNRLSYDGNNAAIRSSVHYSQGYNNAFWNGSQMVYGDGDGQTFIPLSGGIDVVAHELTHAVTDYTAGLIYQNESGAINEAISDIFGTLVEFYANKNPDWEIGEDVYTPGISGDSLRSMSDPAKYGDPDHYSKRYTGTQDNGGVHINSGIINKAAYLISQGGTHYGVSVVGIGRDKLGKIFYRALTQYLTPTSNFSQLRAAAVQSATDLYGSTSQEVASVKQAFDAVGVK and stop.
1.05
